# System: HT29 colon
# assayProcedure: NCI-60 one-dose screen, 48 h
# protocolConditions: 10 µM unless noted
Compounds without any hit were thinned out: in the full panel of roughly 83,000, 20% have a hit. Activity calls are given as the source filed them. How the source made its calls: active means growth percent below 10; inactive means the rest.
Lab note: assign the record to one of active, inactive

*Q* For N#CC(C#N)=C1NC(c2ccccc2)=C(c2ccccc2)C(c2ccccc2Cl)=C1C#N , which call appears in the assay record?
*A* inactive

*Q* For O=C(Nc1cc(Br)ccn1)c1cc2cc(Nc3nc(-c4ccccc4)nc4ccccc34)ccc2oc1=O , which call appears in the assay record?
*A* inactive

*Q* For NS(=O)(=O)c1ccc(N2Cc3cc(Cl)ccc3OC3=C2C(=O)N(CC2CCCCC2)C3=O)cc1 , which call appears in the assay record?
*A* active

*Q* For COc1ccc(/C=C/C(=O)c2ccc(NC(=O)CSc3nnc(-c4ccc(OC)c(OC)c4)n3-c3ccccc3)cc2)cc1 , which call appears in the assay record?
*A* inactive

*Q* For CCC1=C[C@H]2CN(CCc3c([nH]c4ccccc34)[C@@](C(=O)OC)(c3cc4c(cc3OC)N(C)[C@H]3[C@@](O)(C(=O)OC)[C@H](OC(C)=O)[C@]5(CC)[C@@H]6C[C@@H]6CN6CC[C@]43[C@@H]65)C2)C1 , which call appears in the assay record?
*A* active

*Q* For C=C(C)[C@@H]1CC[C@]2(C(=O)OCCCC[P+](c3ccccc3)(c3ccccc3)c3ccccc3)CC[C@]3(C)[C@H](CC[C@@H]4[C@@]5(C)CC[C@H](OC(=O)C(Cl)Cl)C(C)(C)[C@@H]5CC[C@]43C)[C@@H]12 , which call appears in the assay record?
*A* active

*Q* For N#Cc1ccc(C2C3=C(CCCC3=O)OC3=C2C(=O)c2ccccc2C3=O)cc1 (stereo not drawn) , which call appears in the assay record?
*A* inactive

*Q* For C(=C\c1cn(-c2ccccc2)nc1-c1ccccc1)/c1nnc(-c2c[nH]c3ccccc23)o1 , which call appears in the assay record?
*A* inactive

*Q* For C=C(C)[C@@H]1CC[C@]2(C(=O)OCCOCCOCC[P+](c3ccccc3)(c3ccccc3)c3ccccc3)CC[C@]3(C)[C@H](CC[C@@H]4[C@@]5(C)CC[C@H](C)C(C)(C)[C@@H]5CC[C@]43C)[C@@H]12 , which call appears in the assay record?
*A* active

*Q* For CC(C)NS(=O)(=O)c1cccc(-c2ccc3c(=O)n(CCCN)c4c(c3c2)C(=O)c2ccccc2-4)c1 , which call appears in the assay record?
*A* inactive

*Q* For COC1=CC2C=C(C3N(c4ccccc4)NC(=O)[C@@H]4CCCN34)C(=O)NC2C=C1 (stereo partly drawn) , which call appears in the assay record?
*A* inactive

*Q* For COc1ccc(-c2[nH]c3ccccc3c2C=C(C#N)C#N)cc1 , which call appears in the assay record?
*A* inactive

*Q* For C/C(=N\NC(=O)c1ccncc1)c1ccc(N)cc1 , which call appears in the assay record?
*A* inactive

*Q* For CCOC(=O)c1c(C)nc2c(c1N)/C(=C/c1ccccn1)C(=O)N2Cc1ccccc1 , which call appears in the assay record?
*A* active

*Q* For Cc1cccc(C)c1NCc1nnc(-c2ccco2)o1 , which call appears in the assay record?
*A* inactive

*Q* For COc1cc2nc3c(=O)n(CCN(C)C)cnn3c(=O)c2cc1OC , which call appears in the assay record?
*A* inactive

*Q* For CCCn1c(N)c(C(N)=O)sc1=S , which call appears in the assay record?
*A* inactive

*Q* For Cc1nccc2c3ccc(OCc4cn(-c5ccccc5)nn4)cc3n(CCCc3ccccc3)c12 , which call appears in the assay record?
*A* inactive

*Q* For CN(C)[C@@H]1C(=O)C(C(N)=O)=C(O)[C@@]2(O)C(=O)C3=C(O)c4c(O)cc(CN5CCc6ccccc6C5)c(Cl)c4C[C@H]3C[C@@H]12 , which call appears in the assay record?
*A* active

*Q* For C#Cc1ccccc1NC(=O)c1sc2nc3c(cc2c1N)CCCCC3 , which call appears in the assay record?
*A* inactive

*Q* For CCCNc1nc(C)[nH]c(=O)c1S , which call appears in the assay record?
*A* inactive

*Q* For COc1ccc(-c2nnc(N3CCN(C(=O)CN4CCN(c5ccccc5)CC4)CC3)nc2-c2ccc(OC)cc2)cc1 , which call appears in the assay record?
*A* active

*Q* For CC1(c2ccccc2Cl)NC(=O)NC1=O (stereo not drawn) , which call appears in the assay record?
*A* inactive

*Q* For C=C(C)[C@@H]1CC[C@]2(C(=O)n3ccnc3)CC[C@]3(C)[C@H](CC[C@@H]4[C@@]5(C)CCCNC(C)(C)[C@@H]5CC[C@]43C)[C@@H]12 , which call appears in the assay record?
*A* active

*Q* For CCOC(=O)CC[C@H](NC(=O)c1ccc(NC)c2ccccc12)C(=O)OCC , which call appears in the assay record?
*A* inactive

*Q* For COc1cccc(NC(=O)Nc2ccc(Oc3ncnc4[nH]c(C)c(C)c34)cc2)c1 , which call appears in the assay record?
*A* inactive

*Q* For C=C1C(=O)O[C@H]2[C@H]1CC/C(COC(=O)N1CCC[C@H]1C(=O)Nc1ccc(OC)c(C(N)=O)c1O)=C\CC[C@@]1(C)O[C@@H]21 , which call appears in the assay record?
*A* active

*Q* For Cc1c(Br)cccc1NC(=O)c1sc2nc3c(cc2c1N)CN(Cc1ccccc1)CC3 , which call appears in the assay record?
*A* active

*Q* For COc1cc2nc3c(=O)n(-c4ccc(C#N)cc4)cnn3c(=O)c2cc1OC , which call appears in the assay record?
*A* inactive

*Q* For C=C(C)[C@@H]1CC[C@]2(C(=O)O)CC[C@]3(C)[C@H](CC[C@@H]4[C@@]5(C)C[C@@H](CC#Cc6ccccc6)C(=O)C(C)(C)[C@@H]5CC[C@]43C)[C@@H]12 , which call appears in the assay record?
*A* inactive

*Q* For COc1cc2cc(c1Cl)N(C)C(=O)C[C@H](OC(=O)[C@H](C)N(C)C(=O)CCS)C[C@]1(C)O[C@H]1[C@H](C)[C@@H]1C[C@@](O)(NC(=O)O1)[C@H](OC)/C=C/C=C(\C)C2 , which call appears in the assay record?
*A* active

*Q* For CSc1nc(-c2ccc(F)cc2)c(C#N)c(N2CCOCC2)n1 , which call appears in the assay record?
*A* inactive

*Q* For Nc1cc(N)c(S(=O)(=O)O)cc1N=Nc1cc([N+](=O)[O-])ccc1O , which call appears in the assay record?
*A* inactive
